# Tested on: CAKI-1
# experimental-details: NCI tumour cell line growth inhibition, 48 h
Activity calls are given as the source filed them. No stated cut-off is given here; in the data, active = GI50 up to about 1.1 µM and inactive = higher.
Would you mind answering with one of these outcomes? T for active, F for inactive

Some entries whose results are on file:
compound: Cc1ccc(-n2c(Cn3nnc(-c4cccnc4)n3)nn(C3OC(COC(=O)c4ccccc4)C(OC(=O)c4ccccc4)C3OC(=O)c3ccccc3)c2=S)cc1 (stereo unspecified)
tgt: CAKI-1
class-assignment: F

compound: CC1N(C)C(=O)OC12CCN(CCCC(=O)c1ccc(F)cc1)CC2 (stereo unspecified)
tgt: CAKI-1
class-assignment: F

Lookup: What was the test verdict on Cc1cc2c(c(/C=N/c3ccc([N+](=O)[O-])cc3)c1)OC1(C=C2)Oc2ccccc2C(=O)N1C (stereo unspecified) ?
Found: F

Lookup: What was the test verdict on CCCCCCNC(=O)CCC(NC(=O)c1ccc(N(C)Cc2cnc3nc(N)nc(N)c3n2)cc1)C(=O)NCCCCCC (stereo unspecified) ?
Found: F

Lookup: What was the test verdict on CC(C)C1CC2C(=O)N(c3ccccc3)C(=O)C2c2[nH]c3ccccc3c21 (stereo unspecified) ?
Found: F

Lookup: What was the test verdict on CC1(C)OB(O)OC1(C)C ?
Found: F

Lookup: What was the test verdict on CNC(=S)NC1CCCCC1NC(=S)NC (stereo unspecified) ?
Found: F

Lookup: What was the test verdict on C=C1CC(OC)(C(O)C(=O)N[C@H]2OCO[C@H]3C2O[C@H](C[C@@H](CO)OC)C(C)(C)C3OC)O[C@H](C)[C@@H]1C (stereo partly specified) ?
Found: T

Lookup: What was the test verdict on C=C(CCCO)[C@@H]1CC[C@@](C)(O)[C@H]1C ?
Found: F

Lookup: What was the test verdict on CCOC(=O)/C(=C\c1ccc(O)c(OC)c1)C(=O)c1ccccc1 ?
Found: F

Lookup: What was the test verdict on COc1c(Br)cc(Br)c(OC)c1-c1ccc[nH]1 ?
Found: F

Lookup: What was the test verdict on CC(C)(C)c1ccc2c(c1)S(=O)(=O)Nc1ccccc1NS(=O)(=O)c1cc(C(C)(C)C)ccc1OCCOCCOCCO2 ?
Found: F

Lookup: What was the test verdict on CC(C)NC(=O)OCc1c(COC(=O)NC(C)C)n(C)c2c1ccc1ccccc12 ?
Found: T

Lookup: What was the test verdict on Cc1cc2nc3c(C)c4ccccc4c(C)n3c2cc1C ?
Found: F

Lookup: What was the test verdict on CC(C)C(/C=C/c1ccc(Br)cc1)=N\NC(N)=O ?
Found: F

Lookup: What was the test verdict on CCOC(=O)C1CCCCN1C(=O)OCc1ccccc1 (stereo unspecified) ?
Found: F

---

Give GI50 for every item shown.
# Tested on: IGROV-1
# experimental-details: NCI tumour cell line growth inhibition, 48 h
Activity calls are given as the source filed them. Rule as the data show it: active = GI50 up to about 1.1 µM and inactive = higher.

Below are worked cases with known answers.
molecule: CC1(C)Cc2ccccc2C(C)(Cl)C(=O)N1 (stereo unspecified)
tgt: IGROV-1
attribute-measured: GI50
recorded-measurement: > 10 µM (inactive)
//
molecule: CCOC(=O)/C(C(=S)NCc1ccccc1)=C(/N)N1CCCC1
tgt: IGROV-1
attribute-measured: GI50
recorded-measurement: > 100 µM (inactive)
//
molecule: O=C1CCCCC1CN1CCCC1 (stereo unspecified)
tgt: IGROV-1
attribute-measured: GI50
recorded-measurement: > 100 µM (inactive)

For each listed entry, give its GI50.
1. O=Cc1cc2c(s1)C(=O)c1sccc1C2=O
2. Cc1cc2nc3c(C)c4ccccc4c(C)n3c2cc1C
3. CCCCCCCCCCCCCCCCOCC(COP(=O)([O-])OCC[N+](C)(C)C)OCCCCCCCCCCCCCCCC (stereo unspecified)
4. Cc1cc(=O)nc(S(=O)(=O)NC(=S)Nc2ccc(Br)cc2)[nH]1
5. COc1ccc(/C(CC2OC(=O)c3ccccc32)=N\NC(N)=O)cc1 (stereo unspecified)
6. CCCCCCCCCCCCOP(=O)(O)OP(=O)(O)OCC1OC(n2ccc(N)nc2=O)CC1O (stereo unspecified)
7. Nc1nnnn1CCO

Found:
1. 1.49 µM (inactive)
2. 2.05 µM (inactive)
3. > 100 µM (inactive)
4. 73.1 µM (inactive)
5. > 100 µM (inactive)
6. > 100 µM (inactive)
7. > 100 µM (inactive)

---

# Test system: ACHN
# experimental-details: NCI tumour cell line growth inhibition, 48 h
Activity calls are given as the source filed them. Cut-off read from the data, not from the text of the source: active = GI50 up to about 1.1 µM and inactive = higher.
Would you mind answering with one of these outcomes? active, inactive

Some entries whose results are on file:
molecule: CCOC(=O)C(Cc1ccc(N(CCCl)CCCl)cc1)NC(=O)C(Cc1ccccc1)NC(C)=O (stereo unspecified)
tgt: ACHN
class-assignment: active
--
molecule: NC1C2C=CC(C2)C1C(=O)O (stereo unspecified)
tgt: ACHN
class-assignment: inactive

Lookup: What was the test verdict on O=C1CC(CC(O)C(O)C(O)CO)CC(=O)N1 (stereo unspecified) ?
Found: inactive

Lookup: What was the test verdict on O=C(Cc1nc2ccccc2o1)C(=O)Nc1ccc(Cl)cc1Cl ?
Found: inactive

Lookup: What was the test verdict on NC(=O)c1ncn(C2OC(CO)C(O)C2O)c1NC=O (stereo unspecified) ?
Found: inactive

Lookup: What was the test verdict on COCCOC(C)C(=O)C(O)S(=O)(=O)O (stereo unspecified) ?
Found: inactive

Lookup: What was the test verdict on COC(=O)C(C)(Cc1ccc2c(c1)nnn2C(C)=O)NC(C)=O (stereo unspecified) ?
Found: inactive

Lookup: What was the test verdict on Nc1nc(SCC(=O)c2ccc(Br)cc2)c2nc[nH]c2n1 ?
Found: inactive

Lookup: What was the test verdict on C=C1C(=O)OC2/C=C(\C)CC/C=C(/C)CC(OC(=O)/C(=C/CO)CO)C12 (stereo unspecified) ?
Found: inactive

Lookup: What was the test verdict on CCSc1nc(-c2ccc(OC)cc2)c(C#N)c(=O)n1C1OCC(OC(C)=O)C(OC(C)=O)C1OC(C)=O (stereo unspecified) ?
Found: inactive

Lookup: What was the test verdict on CN(C)CC1CCC/C1=N\O (stereo unspecified) ?
Found: inactive

---

Give GI50 for every item shown.
# Tested on: DMS-114
# experimental-details: NCI tumour cell line growth inhibition, 48 h
Active and inactive are the calls of the source. Rule as the data show it: active = GI50 up to about 1.1 µM and inactive = higher.

compound: CCOC(=O)C1CCCCN1C(=O)OCc1ccccc1 (stereo unspecified)
tgt: DMS-114
GI50: 97.7 µM (inactive)

compound: C=CCNC(=O)ON1C(=O)CCC1=O
tgt: DMS-114
GI50: > 100 µM (inactive)

compound: CCCCCCC(=O)C/C(CCC(=O)N(Cc1ccccc1)Cc1ccccc1)=N\NC(N)=O
tgt: DMS-114
GI50: > 100 µM (inactive)

compound: CC(C)C1CN(C(=O)OCc2ccccc2)C2N1C(=O)C2(C)OCc1ccccc1 (stereo unspecified)
tgt: DMS-114
GI50: 31.3 µM (inactive)

For each listed entry, give its GI50.
1. CCOC(=O)CN1C(=O)c2cc([N+](=O)[O-])cc3cc([N+](=O)[O-])cc(c23)C1=O
2. C[Si](C)(C)/C=C\CCO
3. COc1ccc2c(c1[N+](=O)[O-])CC[C@@H]1[C@@H]2CC[C@]2(C)C(=O)CC[C@@H]12

Found:
1: 57.7 µM (inactive); 2: > 100 µM (inactive); 3: 18.4 µM (inactive)

For each listed entry, give its GI50.
1. CC1(C2COC(=O)C2)SCCCS1 (stereo unspecified)
2. COc1cc(/C=C2\C(=O)N(C(=O)Cc3ccccc3)N=C2C)cc(OC)c1OC
3. CCOc1ccc2[nH]c3c(C)c4ccncc4c(C)c3c2c1
4. N#C/C(=C\c1ccc2[nH]ccc2c1)C(=O)NCCCCNC(=O)/C(C#N)=C/c1ccc2[nH]ccc2c1

Found:
["> 100 µM (inactive)", "> 100 µM (inactive)", "1.34 µM (inactive)", "> 100 µM (inactive)"]

---

# System: A498
# experimental-details: NCI tumour cell line growth inhibition, 48 h
Activity calls are given as the source filed them. No stated cut-off is given here; in the data, active = GI50 up to about 1.1 µM and inactive = higher.
attribute-measured: GI50

Below are worked cases with known answers.
compound: CN(C)CC1CCC/C1=N\O (stereo unspecified)
tgt: A498
attribute-measured: GI50
recorded-measurement: > 100 µM (inactive)

compound: Cc1sc2ncnc(NCCc3ccccc3)c2c1C
tgt: A498
attribute-measured: GI50
recorded-measurement: 11.1 µM (inactive)

compound: O=C(CSc1nc2ccc(I)cc2c(=O)n1Cc1ccccc1)NN1C(=O)c2ccccc2C1=O
tgt: A498
attribute-measured: GI50
recorded-measurement: 14.8 µM (inactive)

compound: COC(=O)C(CCC(=O)CCl)N1C(=O)c2ccccc2C1=O (stereo unspecified)
tgt: A498
attribute-measured: GI50
recorded-measurement: 19.5 µM (inactive)

compound: N#C/C(=C\c1ccc2[nH]ccc2c1)C(=O)NCCCCNC(=O)/C(C#N)=C/c1ccc2[nH]ccc2c1
tgt: A498
attribute-measured: GI50
recorded-measurement: > 31.6 µM (inactive)

Turning now to a further record.
Per the record, COc1ccc(Oc2nc3c(N)cc(C(F)(F)F)cc3nc2-c2ccccc2)cc1 has GI50 of 28.2 µM (inactive)
